Hello, the source for this data is patent US20210363262A1, in case you need it.

# agonist activity: Akt phosphorylation in Caki-1 cells, Mean (%) (PBS = 0%, HGF/SF = 100%) annotations
SYSTEM: c-Met on cancer cell lines (Caki-1 renal cell carcinoma; MKN45 c-Met-amplified gastric cancer) (UniProt P08581 25-1390)
Sequence (P08581 25-1390): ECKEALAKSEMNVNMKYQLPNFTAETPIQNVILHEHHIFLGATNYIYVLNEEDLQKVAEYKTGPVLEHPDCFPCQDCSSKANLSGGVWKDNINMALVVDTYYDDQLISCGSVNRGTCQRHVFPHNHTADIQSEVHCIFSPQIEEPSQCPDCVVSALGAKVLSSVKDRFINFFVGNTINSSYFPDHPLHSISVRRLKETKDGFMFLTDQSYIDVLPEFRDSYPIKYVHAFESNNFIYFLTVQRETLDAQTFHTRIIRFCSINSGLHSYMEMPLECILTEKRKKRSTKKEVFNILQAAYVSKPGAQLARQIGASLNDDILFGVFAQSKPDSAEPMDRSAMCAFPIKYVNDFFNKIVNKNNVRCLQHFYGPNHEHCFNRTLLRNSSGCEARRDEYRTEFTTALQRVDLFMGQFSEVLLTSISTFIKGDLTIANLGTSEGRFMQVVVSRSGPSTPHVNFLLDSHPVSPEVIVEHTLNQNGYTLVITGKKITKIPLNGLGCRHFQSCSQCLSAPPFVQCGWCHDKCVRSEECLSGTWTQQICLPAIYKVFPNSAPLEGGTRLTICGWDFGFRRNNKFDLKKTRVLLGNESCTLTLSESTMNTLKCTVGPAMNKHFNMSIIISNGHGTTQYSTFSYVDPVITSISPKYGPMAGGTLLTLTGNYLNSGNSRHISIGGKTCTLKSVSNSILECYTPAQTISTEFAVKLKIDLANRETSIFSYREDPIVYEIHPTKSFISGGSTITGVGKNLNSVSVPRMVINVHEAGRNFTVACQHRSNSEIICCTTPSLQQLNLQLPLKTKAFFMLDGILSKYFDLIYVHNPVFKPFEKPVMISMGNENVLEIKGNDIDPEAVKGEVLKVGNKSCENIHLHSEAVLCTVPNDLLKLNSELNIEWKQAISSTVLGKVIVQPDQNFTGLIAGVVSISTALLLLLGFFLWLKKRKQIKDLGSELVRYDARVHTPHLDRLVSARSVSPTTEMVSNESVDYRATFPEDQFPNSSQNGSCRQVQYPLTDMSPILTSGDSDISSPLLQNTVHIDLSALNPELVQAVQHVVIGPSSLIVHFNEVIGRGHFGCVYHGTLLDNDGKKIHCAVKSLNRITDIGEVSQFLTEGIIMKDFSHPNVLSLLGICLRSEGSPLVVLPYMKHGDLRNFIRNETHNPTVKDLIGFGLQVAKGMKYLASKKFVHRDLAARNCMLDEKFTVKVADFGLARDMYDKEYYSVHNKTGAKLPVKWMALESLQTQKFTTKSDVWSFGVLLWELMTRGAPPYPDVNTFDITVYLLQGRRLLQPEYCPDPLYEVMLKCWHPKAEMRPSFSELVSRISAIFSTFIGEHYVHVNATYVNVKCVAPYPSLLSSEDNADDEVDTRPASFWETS
PROTOCOL SUMMARY: cell-based or functional assay
MEASUREMENT NAME: agonist activity: Akt phosphorylation in Caki-1 cells, Mean (%) (PBS = 0%, HGF/SF = 100%)

INSERT INTO assay_data (binder, reported_result) VALUES
  ('1F12_H6L5, full-length human IgG1 (antibody, V domains shown) VH: EVQLLESGGGLVQPGGSLRLSCAASGFTFSNYAMSWVRQAPGKGLEWVSGISYSGGSTYYADSVKGRFTISRDNSKNTLYLQMNSLRAEDTAVYYCAKASRSCQRPACHYANGMDVWGQGTLVTVSS VL: QSVLTQPPSASGTPGQRVTISCTGSSSNIGNNYVTWYQQLPGTAPKLLIYYNNHRPSGVPDRFSGSKSGTSASLAISGLQSEDEADYYCGSWDYSLRAYVFGGGTKLTVL', '18.2%'),
  ('1F12_H35H, full-length human IgG1 (antibody, V domains shown) VH: EVQLLESGGGLVQPGGSLRLSCAASGFTFSNYAMHWVRQAPGKGLEWVSGISYSGGSTYYADSVKGRFTISRDNSKNTLYLQMNSLRAEDTAVYYCAKASRSCQRPACSYANGMDVWGQGTLVTVSS VL: QSVLTQPPSASGTPGQRVTISCTGSSSNIGNNYVTWYQQLPGTAPKLLIYYNNHRPSGVPDRFSGSKSGTSASLAISGLQSEDEADYYCGSWDYSLSAYVFGGGTKLTVL', '17.3%'),
  ('1F12_H53D, full-length human IgG1 (antibody, V domains shown) VH: EVQLLESGGGLVQPGGSLRLSCAASGFTFSNYAMSWVRQAPGKGLEWVSGISYDGGSTYYADSVKGRFTISRDNSKNTLYLQMNSLRAEDTAVYYCAKASRSCQRPACSYANGMDVWGQGTLVTVSS VL: QSVLTQPPSASGTPGQRVTISCTGSSSNIGNNYVTWYQQLPGTAPKLLIYYNNHRPSGVPDRFSGSKSGTSASLAISGLQSEDEADYYCGSWDYSLSAYVFGGGTKLTVL', '24.5%'),
  ('1F12_L26D, full-length human IgG1 (antibody, V domains shown) VH: EVQLLESGGGLVQPGGSLRLSCAASGFTFSNYAMSWVRQAPGKGLEWVSGISYSGGSTYYADSVKGRFTISRDNSKNTLYLQMNSLRAEDTAVYYCAKASRSCQRPACSYANGMDVWGQGTLVTVSS VL: QSVLTQPPSASGTPGQRVTISCTGDSSNIGNNYVTWYQQLPGTAPKLLIYYNNHRPSGVPDRFSGSKSGTSASLAISGLQSEDEADYYCGSWDYSLSAYVFGGGTKLTVL', '38.1%');
